ASSAY READOUT: melting point

Consider O=C1c2c(Cl)cccc2-n2cnc(-c3nc(CN4Cc5ccccc5C4)no3)c2[C@@H]2CCN12 . Its measured melting point is 170 to 175 °C

Data point: O=C(O)C(c1ccccc1)C1CCN(c2ccc([N+](=O)[O-])cc2)CC1 (stereo unspecified) ; melting point = 216 °C

melting point reported for this compound COc1ccc(Oc2c(Br)cc(C=O)cc2[N+](=O)[O-])cc1Cc1ccc(=O)[nH]n1 : 188 to 190 °C

compound COc1cc(C)cc2nc(SCc3ccccc3)nn12 , melting point observed: 85 to 87 °C

Sample CC1CN(c2ccc(N)cc2)C(C)CN1CC(O)(Cn1cncn1)c1ccc(Cl)cc1Cl (stereo unspecified) ; melting point observed: 74 to 75 °C

Note to self: melting point recorded for CCCCCCCCCCCCCCCc1cccc(OC)c1 was 27 to 28 °C

Sample CCN(Cc1nc2cc(OC)c(OC)cc2c(-c2ccc(OC)c(OC)c2)c1C(C)=O)C(C)(C)C ; melting point observed: 156 to 157 °C

// recorded melting point for CCCc1[nH]c2cc(C(=O)O)ccc2c1C(=O)C1CCCCC1 : 217 to 218 °C

The compound listed as CN1CCC(c2cc3ccc(Cl)cc3c(=O)[nH]2)CC1 has a reported melting point of 253 to 255 °C

Reported melting point ( CCc1ccc(/C(Cl)=C/c2ccc(Br)cc2)cc1 ) = 75 °C

CS(=O)(=O)N1CCN(C(CC2Cc3cc(C(N)=O)ccc3O2)C(=O)NO)CC1 (stereo unspecified) has a reported melting point of 185 °C

Please fill in: melting point reported for COc1cc(COC(=O)C2Cc3sccc3C(=O)N2Cc2cc(OC)c(OC)c(OC)c2)cc(OC)c1OC (stereo unspecified) = 55 °C

// sample CCCCc1cc2c3c(c[nH]c3c1)CC1C2CC(NC(=O)c2ccccc2)CN1C (stereo unspecified) , its melting point was 143 to 145 °C

// O=[N+]([O-])c1sc2ccc(F)cc2c1Br : melting point value = 129 to 130 °C

// recorded melting point for c1ccc(CNc2c(-c3ccccc3)sc3ccccc23)cc1 : 52 to 53 °C

Briefly, melting point measured for COC(=O)N=C(NC(=O)NC1CCCCC1)OC : 79 to 80.5 °C

Per the records, this compound ( CC(C)c1ccc(-c2csc(-c3ccc(C(=O)O)cc3)n2)cc1 ) has melting point equal to 257 to 258 °C

compound CC#CCOc1cc(Cl)ncn1 , melting point observed: 43.5 °C

Kindly note the recorded melting point for CCCCCCCCCCCCCCCC(=O)OCCN(C)C , which is 46 to 48 °C

// sample Cn1c(=O)nc(-c2ccccc2)c2cc3c(cc21)OCO3 , its melting point was 253 to 255 °C

Notebook: O=C(O)CCc1ccc2ccccc2c1Br , melting point read as 116 to 119 °C
